test: Circular dichroism (CD) helicity; assay type: physicochemical
Hi there, I'd appreciate the recorded CD % Helicity for every entry that follows.
Give your result in % as a bare value.

-- ask Entry under review: CC(=O)N[C@@H](CC(C)C)C(=O)N[C@H](C(=O)N[C@@H](Cc1ccccc1)C(=O)N[C@]1(C)CCCCCCC=CCCC[C@@](C)(C(=O)N[C@@H](CO)C(=O)N[C@@H](C)C(=O)N[C@@H](C)C(N)=O)NC(=O)[C@H](CC2CCC2)NC(=O)[C@H](Cc2c[nH]cn2)NC(=O)[C@H](C)NC(=O)[C@H](Cc2c[nH]c3ccccc23)NC(=O)[C@H](Cc2ccc(O)cc2)NC(=O)[C@H](CCC(=O)O)NC1=O)[C@@H](C)O [MP-501, ATSP-7041 (Q8H)] . Reported CD % Helicity?
-- reply 29.1

-- ask Entry under review: CC(=O)N[C@@H](CCCCN=[N+]=[N-])C(=O)NCCC(=O)N[C@@H](CC(C)C)C(=O)N[C@H](C(=O)N[C@@H](Cc1ccccc1)C(=O)N[C@]1(C)CCCCCCC=CCCC[C@@](C)(C(=O)N[C@@H](CO)C(=O)N[C@@H](C)C(=O)N[C@@H](C)C(N)=O)NC(=O)[C@H](CC2CCC2)NC(=O)[C@H](CCC(N)=O)NC(=O)[C@H](Cc2c[nH]cn2)NC(=O)[C@H](Cc2c[nH]c3ccccc23)NC(=O)[C@H](Cc2ccc(O)cc2)NC(=O)[C@H](CCC(=O)O)NC1=O)[C@@H](C)O [MP-496, AZIDE-ATSP-7041 (A8H)] . Reported CD % Helicity?
-- reply 32.75

-- ask Entry under review: CC(=O)N[C@@H](CCCCN=[N+]=[N-])C(=O)NCCC(=O)N[C@@H](CC(C)C)C(=O)N[C@H](C(=O)N[C@@H](Cc1ccccc1)C(=O)N[C@]1(C)CCCCCCC=CCCC[C@@](C)(C(=O)N[C@@H](CO)C(=O)N[C@@H](C)C(=O)N[C@@H](C)C(N)=O)NC(=O)[C@H](CC2CCC2)NC(=O)[C@H](CCC(N)=O)NC(=O)[C@H](C)NC(=O)[C@H](Cc2c[nH]c3ccccc23)NC(=O)[C@H](Cc2ccc(O)cc2)NC(=O)[C@@H]2CCCN2C1=O)[C@@H](C)O [MP-8834] . Reported CD % Helicity?
-- reply 21.9

-- ask Entry under review: CC(=O)N[C@@H](CCCCN=[N+]=[N-])C(=O)NCCC(=O)N[C@@H](CC(C)C)C(=O)N[C@H](C(=O)N[C@@H](Cc1ccccc1)C(=O)N[C@]1(C)CCCCCCC=CCCC[C@@](C)(C(=O)N2CCC[C@@H]2C(=O)N2CCC[C@@H]2C(=O)N2CCC[C@@H]2C(=O)N2CCC[C@@H]2C(=O)N2CCC[C@@H]2C(=O)N2CCC[C@@H]2C(N)=O)NC(=O)[C@H](CC2CCC2)NC(=O)[C@H](CCC(N)=O)NC(=O)[C@H](C)NC(=O)[C@H](Cc2c[nH]c3ccccc23)NC(=O)[C@H](Cc2ccc(O)cc2)NC(=O)[C@H](CCC(=O)O)NC1=O)[C@@H](C)O [MP-896] . Reported CD % Helicity?
-- reply 19.15
